B1: Syntaxin-binding protein 4, residues 493 to 538; numbered along this chain, Q6ZWJ1 (parent)
chain: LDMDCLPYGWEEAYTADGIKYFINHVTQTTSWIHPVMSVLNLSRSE

variants of: B1; test: abundance fitness (aPCA) (normalised: wild type 0, dead -1); higher = more abundant; growth selection in yeast, the domain comes from the species named; conditions: Homo sapiens
Observation Type: abundance fitness
The answer should be written as a number, with no unit following it.

The value of abundance fitness measured for the variant W10Q turned out to be -0.613

The value of abundance fitness measured for the variant A16G turned out to be -0.445

The value of abundance fitness measured for the variant Y14G turned out to be -0.773

The value of abundance fitness measured for the variant D17R turned out to be -0.697

The value of abundance fitness measured for the variant K20N turned out to be -0.54
